Sourced from a melting point compilation (Tetko et al.; mined from patent text by program, amines drawn as free bases though some values may be those of a salt)

# reported melting point; entries follow

For orientation, consider the following solved cases.
[
  {
    "molecule": "OCCNc1ccc2nnn(Cc3ccc4ncccc4c3)c2n1",
    "test.readout": "melting point",
    "reported.value": "184 to 186 °C"
  },
  {
    "molecule": "Cc1cccc2c1nc(-c1cccnc1)n2Cc1c(F)cccc1F",
    "test.readout": "melting point",
    "reported.value": "186 to 188 °C"
  },
  {
    "molecule": "CNC(=O)C(=NOC)c1ccccc1Oc1cccc(-c2ccc(Cl)cc2)c1",
    "test.readout": "melting point",
    "reported.value": "118 to 121 °C"
  },
  {
    "molecule": "COC(=O)c1cc(C(=O)OC)cc(N2C(=O)C=CC2=O)c1",
    "test.readout": "melting point",
    "reported.value": "186 to 187 °C"
  },
  {
    "molecule": "O=c1[nH]sc2nc(-c3ccccc3)nc(CCc3ccccc3)c12",
    "test.readout": "melting point",
    "reported.value": "144 to 147 °C"
  }
]

Entry under review: CCOC(=O)C1=C(C)NC(C)=C(C(=O)OCCN2C(=O)c3ccccc3C2=O)C1c1cccc([N+](=O)[O-])c1 (configuration not stated) . Reported melting point?
194 to 195 °C

# melting point lookup, item CC(=O)c1cc(Oc2ccccc2)c(NS(C)(=O)=O)cc1O
151 to 153 °C

----------
The compounds listed here are annotated with their melting point.

[
  {
    "compound": "O=C(Nc1ccc(CP(=O)(O)O)cc1)c1cc(=O)c2ccccc2o1",
    "melting point": "265 to 266 °C"
  },
  {
    "compound": "N#Cc1ccc2nc(C(=O)NCc3cccc(OCCSc4nc[nH]n4)c3)[nH]c(=O)c2c1",
    "melting point": "195 to 198 °C"
  },
  {
    "compound": "Cc1cc(Cl)ccc1OCC(=O)N1Cc2ccc(C(=O)c3ccc(C(C)(C)C)cc3)n2Cc2ccccc21",
    "melting point": "168 °C"
  }
]

Next item in the queue.
Looking for the measured melting point of CN(Cc1ccc(NC(=O)C2=Cc3cc(-c4ccc(-n5ccnc5)cc4)ccc3OCC2)cc1)C1CCOCC1 , can you help?
194 to 195 °C

----------
test.readout: melting point

Some solved cases for reference:
[
  {
    "molecule": "NS(=O)(=O)C1Cc2ccccc2CC1=O (stereo unspecified)",
    "reported.value": "145 to 146 °C"
  },
  {
    "molecule": "CS(=O)c1ccc(-c2nn(Cc3ccc(F)cc3)c(=O)cc2-c2ccc(F)cc2)cc1 (stereo unspecified)",
    "reported.value": "198 °C"
  },
  {
    "molecule": "C#CCN(Cc1ccc2nc(C)[nH]c(=O)c2c1)c1ccc(C(=O)NCC(OC(C)=O)c2ccccc2)cc1 (stereo unspecified)",
    "reported.value": "203 to 205 °C"
  }
]

Would you kindly share the measured melting point for COCc1nc(NC(=O)NS(=O)(=O)c2ccccc2C(=O)OC)nc(SC)n1 ?
147 to 149 °C

Data request, read-out melting point, for O=C1c2ccc(SCc3ccccc3)cc2C(=O)c2cc3ccccc3cc21
200 to 203 °C

Requested field: melting point. Item: CC(c1ccccc1)(c1ccc(O)cc1)c1ccc(O)cc1
185 to 187 °C

For the molecule COC(=O)C(=O)c1ccc(NC(=O)COc2ccc3ccccc3c2)cc1 , what melting point is on record?
175 to 176 °C

Please give the measured melting point for this molecule: CCOC(=O)c1ccc(C(=O)OCC)nc1
46 to 47 °C

Tell me the measured melting point of CCOC(=O)c1oc2ccc([N+](=O)[O-])cc2c1OC , please.
90 to 90.4 °C

Consider the molecule CNC(=O)C(Br)CCBr (stereo unspecified) and give its measured melting point.
48 to 49 °C
